Examples of binders with documented % Blockade of IFNγ release, MLR; D2 follow.
Target: T1, human CD48 (on primary human peripheral blood mononuclear cells) (human, UniProt P09326 27-220)
T1 sequence: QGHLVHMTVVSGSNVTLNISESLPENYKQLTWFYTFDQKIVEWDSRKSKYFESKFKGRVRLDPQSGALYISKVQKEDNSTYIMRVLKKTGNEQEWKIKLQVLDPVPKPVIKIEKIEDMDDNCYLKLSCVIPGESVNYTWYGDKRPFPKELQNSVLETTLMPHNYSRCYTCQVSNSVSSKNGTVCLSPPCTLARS
Experiment: cell-based or functional assay
Provide only the numeric value, understood in %.

Which measured % Blockade of IFNγ release, MLR; D2 value corresponds to H4H1707N (antibody, V domains shown, Human IgG4 Fc (H4H) form of 1707N) VH: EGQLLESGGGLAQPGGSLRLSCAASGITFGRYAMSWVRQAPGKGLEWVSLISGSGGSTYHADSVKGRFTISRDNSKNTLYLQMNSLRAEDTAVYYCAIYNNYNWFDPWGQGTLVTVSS VL: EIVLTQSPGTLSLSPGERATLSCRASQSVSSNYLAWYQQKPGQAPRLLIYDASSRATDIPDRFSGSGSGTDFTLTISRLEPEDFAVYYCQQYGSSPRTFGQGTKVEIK ?
87

What about this binder? H4H1771P (antibody, human IgG4, V domains shown, Human IgG4 Fc (H4H)) VH: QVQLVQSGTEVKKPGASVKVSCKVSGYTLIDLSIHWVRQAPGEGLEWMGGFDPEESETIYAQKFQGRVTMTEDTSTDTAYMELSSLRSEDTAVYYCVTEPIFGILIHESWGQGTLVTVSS VL: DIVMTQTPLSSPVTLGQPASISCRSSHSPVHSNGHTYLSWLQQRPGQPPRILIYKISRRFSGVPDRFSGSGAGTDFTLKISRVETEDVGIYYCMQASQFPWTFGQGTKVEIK
79

Try this binder next: H4H1775P (antibody, human IgG4, V domains shown, Human IgG4 Fc (H4H)) VH: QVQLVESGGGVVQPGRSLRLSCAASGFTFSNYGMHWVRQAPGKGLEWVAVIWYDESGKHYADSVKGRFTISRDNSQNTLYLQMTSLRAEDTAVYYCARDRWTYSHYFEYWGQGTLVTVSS VL: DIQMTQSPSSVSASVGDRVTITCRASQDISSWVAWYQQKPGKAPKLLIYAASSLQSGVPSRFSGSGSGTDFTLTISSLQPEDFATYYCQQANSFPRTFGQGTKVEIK
77
